- Test system: TGF-β-stimulated SMAD3 phosphorylation in BEAS-2B cells
- Test Protocol: Cellular ALK5 potency assay, inhibition of TGF-β stimulated pSMAD3 formation in BEAS-2B cells
- Format: cell-based
- Condition Summary: Homo sapiens, pSMAD3, TGF-β 10 ng/mL, read-out: BEAS2B pIC50 (converted)
Experimental Readout: IC50

Record request: IC50 value, item Cc1cccc(-c2nccc(Nc3ccnc(Nc4ccc(CN5CC6CCCC(C5)N6)cc4)n3)n2)n1
25.1 to 158 nM

Record request: IC50 value, item Cc1cccc(-c2nccc(Nc3ccnc(Nc4ccc(N5CCOCC5)cc4F)n3)n2)n1
25.1 to 158 nM

Record request: IC50 value, item CNC1CCN(c2ccc(Nc3nccc(Nc4ccnc(-c5cc(O)ccc5C)n4)n3)cc2)CC1
200 to 1260 nM

Record request: IC50 value, item Cc1cccc(-c2nccc(Nc3ccnc(Nc4cccc(CN5CCN(C)CC5)c4)n3)n2)n1
25.1 to 158 nM

Record request: IC50 value, item Cc1cccc(-c2nccc(Nc3ccnc(Nc4csc(C(=O)OCCN5C[C@@H](C)N[C@@H](C)C5)c4)n3)n2)n1
25.1 to 158 nM

Record request: IC50 value, item Cc1cccc(-c2nccc(Nc3ccnc(Nc4csc(C(=O)NCC5CNC5)c4)n3)n2)n1
≤ 20 nM

Record request: IC50 value, item Cc1cccc(-c2nccc(Nc3ccnc(Nc4ccc(CN5CC(O)C5)cc4)n3)n2)n1
25.1 to 158 nM

Hey, just so you know, these numbers are from patent US20230399312A1.
